Taken from PubChem BioAssay.

Entries and their z-score values follow.
Target: NADPH oxidase 2 (Homo sapiens)
Assay: compounds shifting NOX2 Amplex Red fluorescence – cell-based, HEK293-NOX2, PMA-stimulated, NOX inhibitor project, primary screen (AID 1159); note: test concentration not given here
Details: 45 min, higher = more signal, called active from +8 up or from −8 down
measured metric: z-score

compound: CC(=O)NCCCC[C@@H]1NC(=O)[C@@H]2C[C@H](C(=O)NCCCCCN)[C@H](c3cccc(OCCO)c3)N2C1=O
meas value: 1.14
//
compound: CN1C2C=C(CCCO)C(C3C(=O)N(C(N)=O)C(=O)C32)C1C1CC1 (stereo not drawn)
meas value: 0.191
//
compound: CCCCN1CC=CC23O[C@@H]4/C=C\CCCOC(=O)C4[C@H]2C(=O)N(CCO)[C@@H]3C1=O (stereo partly drawn)
meas value: 1.28
//
compound: COCCOC(=O)N1C(=O)[C@@]2(c3cc(C#CC4=CCCCC4)ccc31)[C@H](c1ccccc1OCCO)N1[C@H](c3ccccc3)[C@H](c3ccccc3)OC(=O)[C@H]1[C@@H]2C(=O)NC[C@H](O)c1ccccc1
meas value: 1.79
//
compound: CCOC(=O)C=Cc1cccc(C)c1O
meas value: -5.05
//
compound: C=CCC(OC(C)=O)[C@@H]1[C@@H](N(Cc2ccc(-c3ccccc3)cc2)C(=O)c2ccc(-c3ccccc3)cc2)c2cc(OCCCO)ccc2N1C(=O)c1ccc2ccccc2c1 (stereo partly drawn)
meas value: 0.707
//
compound: Cn1cccc1C(O)C1C=CC2C(=O)N(c3ccccc3)C(=O)C2N1Nc1ccccc1 (stereo not drawn)
meas value: -1.34
//
compound: COc1ccc([Si](C)(C)[C@@H]2[C@@H](CC(=O)N3CCC[C@H]3CO)O[C@]3(C(=O)N(Cc4cccc(N5C(=O)COc6ccccc65)c4)c4ccccc43)[C@H]2C)cc1
meas value: 2.66

###

Test system: Inhibin beta A chain (activin A)
Experiment: small molecules binding activin A – biochemical, small-molecule microarray, 635 nm fluorescence scan, primary screen (AID 1107);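 note: mouse activin A protein probed at 4.33 µg/mL on printed slides; score merges bound-protein fluorescence near 667 nm with spot signal-to-noise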
Conditions: INHBA, higher = more signal
Entries and their composite z-score values follow.

molecule: C#Cc1cc2ccccc2oc1=O
composite z-score: -1.73

molecule: CCOC(=O)C[C@H]1[C@H](OC(=O)Cc2ccc3c(c2)OCO3)[C@@H](NC(=O)c2ccc3ccccc3n2)c2cc(OCCCO)ccc2N1C(=O)c1ccccc1
composite z-score: 0.696

molecule: COCCOC(=O)N1C(=O)[C@@]2(c3cc(C#CCC(C(=O)OC)C(=O)OC)ccc31)[C@H](c1ccc(OCCO)cc1)N1[C@H](c3ccccc3)[C@H](c3ccccc3)OC(=O)[C@H]1[C@@H]2C(=O)N1CCc2cc(OC)c(OC)cc2C1
composite z-score: 0.622

molecule: CC(CO)N1C(=O)[C@@H]2[C@H]3C(=O)OCC=C[C@H]3OC23C=CCN(Cn2nnc4ccccc42)C(=O)[C@@H]13 (stereo partly drawn)
composite z-score: 0.647

molecule: COC(=O)[C@@]1(Cc2ccccc2)[C@H]2c3cc(C(=O)N4CCCC4)n(CCc4ccccn4)c3C[C@H]2CN1C(=O)c1ccccc1
composite z-score: 1.11

molecule: CC(C)C[C@@H]1NC(=O)[C@@H]2C[C@H](C(=O)NCCCCCCN)[C@H](c3cccc(OCCO)c3)N2C1=O
composite z-score: 0.775

molecule: O=C(NCCN1CCOCC1)[C@@H]1c2ccccc2C(=O)N(C2Cc3ccccc3C2)[C@H]1c1ccc(CO)cc1
composite z-score: -0.363

molecule: CC(C)[Si]1(C(C)C)OCc2cc(-c3ccc(-c4ccc(Cl)c(Cl)c4)o3)nc(-c3ccccc3)c21
composite z-score: 1.05

molecule: CC(C)C(CO)N1C(=O)[C@@H]2C3C(=O)OCCC/C=C\[C@H]3OC23C=CCN(c2ccc4ccccc4c2)C(=O)[C@@H]13 (stereo partly drawn)
composite z-score: 0.791

molecule: CCCC[C@@H](O)C1=C(COC)C[C@H]2C(=O)N(Cc3ccccc3)C(=O)[C@H]2[C@H]1CO
composite z-score: 0.44

molecule: COCCOC(=O)N1C(=O)[C@@]2(c3cc(C#CCCO)ccc31)[C@H](c1ccc(OCCO)cc1)N1[C@H](c3ccccc3)[C@H](c3ccccc3)OC(=O)[C@H]1[C@@H]2C(=O)Nc1nc2ccccc2s1
composite z-score: 0.854

molecule: COc1cc(NN2C(C(O)c3ccc(N(C)C)cc3)C=CC3C(=O)N(c4ccccc4)C(=O)C32)cc(OC)c1OC (stereo not drawn)
composite z-score: 1.67

molecule: [N-]=[N+]=Nc1ccccc1C[C@@]1(C(=O)N2CCOCC2)N=C(c2ccc(OCCCO)cc2)O[C@@H]1c1ccccc1
composite z-score: -0.431

molecule: C#CCN([C@@H](Cc1ccccc1)C(=O)OC)[C@@H](/C=C/C1CC1)[C@H](O)Cc1ccccc1
composite z-score: 1.49

molecule: CCOC(=O)C[C@H]1[C@H](OC(=O)c2ccccc2-c2ccccc2)[C@@H](NC(=O)c2ccc3ccccc3n2)c2cc(OCCCO)ccc2N1C(=O)Cc1ccc(OC)cc1
composite z-score: 0.711

molecule: [N-]=[N+]=NCc1ccccc1[C@H]1OC(c2ccc(OCCCO)cc2)=N[C@@]1(Cc1ccccc1N=[N+]=[N-])C(=O)NCC(O)CO (stereo partly drawn)
composite z-score: 0.317

molecule: COc1ccc([Si](C)(C)[C@H]2[C@H](CC(=O)N3CCC[C@H]3CO)O[C@@]3(C(=O)N(Cc4ccc(N5CCOC5=O)cc4)c4ccccc43)[C@@H]2C)cc1
composite z-score: 0.378

molecule: CN(C)C(=O)[C@@]1(Cc2ccccc2CN=[N+]=[N-])N=C(c2ccc(OCCCO)cc2)O[C@H]1c1ccccc1N=[N+]=[N-]
composite z-score: 0.987

molecule: COCCCNC(=O)[C@@]1(Sc2ccc(C)cc2)CC(=O)N(C2Cc3ccccc3C2)[C@@H]1c1ccc(CO)cc1
composite z-score: -0.115

molecule: CC1CC/C=C\[C@H]2OC34C=CCN(c5ccc(Cl)cc5)C(=O)[C@H]3N(C(C)CO)C(=O)[C@]4(C)C2C(=O)O1 (stereo partly drawn)
composite z-score: 0.896

molecule: Cc1ccccc1C(O)C1C=CC2C(=O)NC(=O)C2N1Nc1ccccn1 (stereo not drawn)
composite z-score: 0.605

molecule: COc1cc(OC)c(C(O)C2C=CC3C(=O)N(Cc4ccccc4)C(=O)C3N2n2cnnc2)cc1Br (stereo not drawn)
composite z-score: -0.769

molecule: COCCOC(=O)N1C(=O)[C@@]2(c3cc(C#CC4(O)CCCCCC4)ccc31)[C@H](c1ccc(O)cc1)N1[C@H](c3ccccc3)[C@H](c3ccccc3)OC(=O)[C@H]1[C@@H]2C(=O)N1CCN(c2ncccn2)CC1
composite z-score: -0.275

molecule: CCOC(=O)C[C@H]1[C@H](OC(=O)c2ccc(C(=O)c3ccccc3)cc2)[C@@H](NC(=O)CC(C)C)c2cc(OCCCO)ccc2N1C(=O)c1ccccc1
composite z-score: 0.158

molecule: C=CCN1C(=O)[C@]2(CCC(=O)OC(C)(C)C)N=C(c3ccc(OCCCO)cc3)O[C@@H]2c2ccccc21
composite z-score: 1.18

molecule: O=C(NCc1ccc(F)cc1)[C@H]1C[C@H]2C(=O)NCC(=O)N2[C@H]1c1ccc(O)cc1
composite z-score: 0.43

molecule: COc1ccc(CCNC(=O)[C@@]2(c3ccc([N+](=O)[O-])cc3)CC(=O)N(C3CCCCC3)[C@@H]2c2ccc(CO)cc2)cc1
composite z-score: 0.249

molecule: C=CC[C@]1(C(=O)N2CCOCC2)COC(c2ccc(OCCCO)cc2)=N1
composite z-score: 0.976

###

Target: Dickkopf-related protein 1 (Homo sapiens) (UniProt O94907)
Sequence (O94907 whole entry, looked up): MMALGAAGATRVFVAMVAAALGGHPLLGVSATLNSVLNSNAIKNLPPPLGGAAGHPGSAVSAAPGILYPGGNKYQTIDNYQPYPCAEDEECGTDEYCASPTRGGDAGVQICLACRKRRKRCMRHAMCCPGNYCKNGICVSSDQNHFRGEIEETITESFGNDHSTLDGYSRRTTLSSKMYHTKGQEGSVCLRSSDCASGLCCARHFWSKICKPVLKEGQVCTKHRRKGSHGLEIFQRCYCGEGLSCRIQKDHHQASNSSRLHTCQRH
Assay: small molecules binding DKK1 protein – biochemical, small-molecule microarray, 635 nm fluorescence scan, primary screen (AID 1106);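 note: score merges emission near 667 nm with signal to noise over three replicate slides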
Settings: higher = more signal
Note: every record was labeled by where its composite z-score sits among LOW = under -0.06, MEDIUM = from -0.06 up to 0.4, HIGH = 0.4 and over

molecule: C=CC[C@H](OC(=O)Nc1ccc(SC)cc1)c1ccc(O)c2ccccc12
label: HIGH
//
molecule: CCOC(=O)C[C@H]1[C@H](OC(=O)Cc2ccc3c(c2)OCO3)[C@@H](NC(=O)c2ccc3ccccc3n2)c2cc(OCCCO)ccc2N1C(=O)c1ccc2ccccc2n1
label: HIGH
//
molecule: C=C(COC)/C(=C/C[C@H](OC(=O)c1ccncc1)c1ccc(CO)o1)c1cnc2ccccc2c1
label: MEDIUM
//
molecule: CC(C)(C)OC(=O)CC[C@@]1(C(=O)NCC(O)CO)N=C(c2ccc(OCCCO)cc2)O[C@@H]1c1ccccc1CN=[N+]=[N-] (stereo partly drawn)
label: LOW
//
molecule: CCOC(=O)C[C@H]1[C@H](OC(=O)c2ccccc2-c2ccccc2)[C@@H](NC(=O)c2ccc3ccccc3c2)c2cc(OCCCO)ccc2N1C(=O)c1ccccc1
label: HIGH
//
molecule: NC(=O)NCC#Cc1ccc2c(c1)[C@]1(C(=O)N2)[C@H](c2ccccc2OCCO)N2[C@H](c3ccccc3)[C@H](c3ccccc3)OC(=O)[C@H]2[C@@H]1C(=O)O
label: LOW
//
molecule: COC(=O)[C@@]1(Cc2ccc(OC)cc2)[C@H]2c3cc(C(=O)N4CCCC4)n(CCc4c[nH]c5ccc(O)cc45)c3C[C@H]2CN1C(=O)c1ccccc1
label: LOW
//
molecule: CCCC#C[Si](O[C@H](CC)c1cn([C@H](C)c2ccccc2)nn1)(C(C)C)C(C)C
label: MEDIUM
//
molecule: COc1ccc([Si](C)(C)[C@@H]2[C@@H](CC(=O)N3CCC[C@H]3CO)O[C@]3(C(=O)N(Cc4cccc(N5C(=O)COc6ccccc65)c4)c4ccccc43)[C@H]2C)cc1
label: MEDIUM
//
molecule: CCN(CC)c1ccc(N2CC=CC34O[C@@H]5/C=C\CCCOC(=O)C5[C@H]3C(=O)N(C(C)CO)[C@@H]4C2=O)cc1 (stereo partly drawn)
label: HIGH
//
molecule: CCOC(=O)C1=CC[C@@H](c2ccccc2F)N(S(=O)(=O)c2ccc(C)cc2)[C@H]1c1ccccc1
label: MEDIUM
//
molecule: COCCCNC(=O)[C@@]1(CCC(=O)OC(C)(C)C)N=C(c2ccc(OCCCO)cc2)O[C@H]1c1ccccc1N=[N+]=[N-]
label: HIGH
//
molecule: C#CCN([C@@H](Cc1ccccc1)C(=O)OC)[C@@H](/C=C/C1CC1)[C@H](O)Cc1ccccc1
label: LOW
//
molecule: NC(=O)NCC#Cc1ccc2c(c1)[C@]1(C(=O)N2)[C@H](C(=O)N2CCN(c3ncccn3)CC2)[C@H]2C(=O)O[C@H](c3ccccc3)[C@H](c3ccccc3)N2[C@@H]1c1ccc(O)cc1
label: HIGH
//
molecule: CC1=C2[C@@H](CCc3ccccc3)OB(O)C[C@@H]2[C@@H]2C(=O)N(C)C(=O)[C@@H]2C1
label: HIGH
//
molecule: COC(=O)[C@]1(CCS(=O)(=O)c2ccccc2)N=C(c2ccc(OCCCO)cc2)O[C@@H]1c1ccccc1N=[N+]=[N-]
label: HIGH
//
molecule: [N-]=[N+]=Nc1ccccc1C[C@]1(C(=O)NCCN2CCOCC2)COC(c2ccc(OCCCO)cc2)=N1
label: MEDIUM
//
molecule: CC(C)[Si]1(C(C)C)OCc2cc(-c3ccc(-c4ccc(Cl)c(Cl)c4)o3)nc(-c3ccccc3)c21
label: LOW
//
molecule: O=C1O[C@@H](c2ccccc2)[C@@H](c2ccccc2)N2[C@@H](c3ccc(OCCO)cc3)[C@]3(C(=O)Nc4ccc(C#CC5=CCCCC5)cc43)[C@@H](C(=O)NC[C@H](O)c3ccccc3)[C@H]12
label: HIGH
//
molecule: COc1cc2c(cc1O)C(C1CC1)N(Cc1cccc(OC(F)(F)F)c1)CC2 (stereo not drawn)
label: LOW
//
molecule: COC(=O)[C@@H]1N=C(c2ccc(OCCCO)cc2)O[C@@H]1c1ccccc1
label: LOW
//
molecule: COc1ccc([Si](C)(C)[C@H]2[C@H](CC(=O)N(CCO)Cc3ccccc3)O[C@@]3(C(=O)N(C)c4c(Br)cc(C)cc43)[C@@H]2C)cc1
label: HIGH
//
molecule: COc1ccc([C@H]2OC[C@@H]3C[C@H](Cc4ccccc4)C(=O)N32)cc1
label: MEDIUM
//
molecule: C=CCNC(=O)[C@H]1[C@@H]2C(=O)O[C@@H](c3ccccc3)[C@@H](c3ccccc3)N2[C@@H](c2ccccc2OCCO)[C@]12C(=O)N(C(=O)OCCOC)c1ccc(C#CC3(O)CCCCCC3)cc12
label: LOW
//
molecule: CO[C@H]1O[C@H](CO)[C@@H](OC(=O)Nc2ccc(Br)cc2)[C@@H]2OC(=O)[C@@H](Cc3ccccc3)C/C=C/C[C@H](Cc3ccccc3)C(=O)O[C@@H]12
label: MEDIUM
//
molecule: O=C(NCCN1CCOCC1)[C@@H]1c2ccccc2C(=O)N(Cc2ccccc2Cl)[C@H]1c1ccc(CO)cc1
label: LOW
//
molecule: CC(C)NC(=O)[C@@]1(c2ccc([N+](=O)[O-])cc2)CC(=O)N(C2CCCCC2)[C@@H]1c1ccc(CO)cc1
label: MEDIUM
